Attribution: ChEMBL document CHEMBL4513216

assay: Toxicity liver stage against HepG2, at 10uM; assay type: cell-based; design: test concentration 10 uM, cell line HepG2-A16-CD81EGFP; details: human, HepG2-A16-CD81EGFP cells; read-out: INHIBITION
property: cytotoxicity at 10 µM (%)

INSERT INTO assay_data (compound, property, quantitative_result) VALUES
  ('CN(C)C1COC2(CCN(Cc3nccs3)CC2)C1 (stereo not drawn)', 'cytotoxicity at 10 µM', 2.02),
  ('O=C(COC1CCCCC1)Nc1ccn(Cc2ccccn2)n1', 'cytotoxicity at 10 µM', 0.38),
  ('Cc1nn(CC(=O)O)c(C)c1NS(=O)(=O)c1cccc2ccccc12', 'cytotoxicity at 10 µM', -8.52),
  ('CCS(=O)(=O)N1CCC(NC(=O)c2cc(C(C)C)ccc2O)CC1', 'cytotoxicity at 10 µM', -5.16),
  ('Cn1nc(CN2CCCCC2)c2c1CN(C(=O)c1cccc(Cl)c1)C2', 'cytotoxicity at 10 µM', -1.35),
  ('COc1cccc(OCC(=O)N2CCOc3ccncc32)c1', 'cytotoxicity at 10 µM', 7.68),
  ('CCc1cc(-c2cc[nH]n2)nc(N2CCCC2)n1', 'cytotoxicity at 10 µM', 0.255),
  ('CCCc1noc(-c2cn(CC(=O)N(CC)CC)nn2)n1', 'cytotoxicity at 10 µM', 3.35),
  ('CCn1cc(CN2CCCC(c3[nH]ncc3S(C)(=O)=O)C2)cn1 (stereo not drawn)', 'cytotoxicity at 10 µM', 6.5),
  ('c1cncc(O[C@H]2COCCN(C3CCC3)C2)c1', 'cytotoxicity at 10 µM', 0.514),
  ('COc1ccccc1N1CCN(C(=O)CCn2nnnc2C)CC1(C)C', 'cytotoxicity at 10 µM', 6.48),
  ('Cn1cc(CCC(=O)N2CCCN(c3ncccc3C#N)CC2)cn1', 'cytotoxicity at 10 µM', 2.88),
  ('CC(c1cccc(-c2ncc(C#N)c(N)n2)c1)N(C)C (stereo not drawn)', 'cytotoxicity at 10 µM', -7.3),
  ('CCc1nc(CC(=O)N2CCn3c(nnc3C(C)C)C2)cs1', 'cytotoxicity at 10 µM', -6.72),
  ('Cc1nn(C)c(C)c1C1CCCN1Cc1nc(C)c2ccccc2n1 (stereo not drawn)', 'cytotoxicity at 10 µM', -3.9),
  ('c1c2c(nn1CC1CC1)C(CNC1CCOCC1)OCC2 (stereo not drawn)', 'cytotoxicity at 10 µM', 7.43),
  ('CS(=O)(=O)NC(=O)c1nnn(-c2cccc(F)c2)c1C1CC1', 'cytotoxicity at 10 µM', -3.9),
  ('COC(=O)c1ccc(C2CC(=O)Oc3cc(C)[nH]c(=O)c32)cc1 (stereo not drawn)', 'cytotoxicity at 10 µM', -3.86),
  ('c1ccc(-c2cc(CN3C[C@H]4CC[C@@H](C3)N(CC3CC3)C4)on2)cc1', 'cytotoxicity at 10 µM', -4),
  ('CCc1onc(C)c1C(=O)N1CCN(c2ncc3c(n2)CCOC3)CC1', 'cytotoxicity at 10 µM', 0.0912),
  ('CCn1c(CN2CCCC(Cn3cncn3)C2)nc2c(F)cccc21 (stereo not drawn)', 'cytotoxicity at 10 µM', 6.49),
  ('COC(=O)Cn1ccc(NS(=O)(=O)c2ccc3c(c2)CCC3)n1', 'cytotoxicity at 10 µM', 10.6),
  ('c1cnc(N2CCN(Cc3nnnn3C3CC3)CC2)nc1', 'cytotoxicity at 10 µM', 9.29),
  ('CCc1noc(C)c1C(=O)N1CCCC1Cn1nc(C)cc1C (stereo not drawn)', 'cytotoxicity at 10 µM', -5.48),
  ('CC(C)c1csc(C2CCCN(C(=O)c3ncccn3)C2)n1 (stereo not drawn)', 'cytotoxicity at 10 µM', 6.3),
  ('CSc1ccc(C(=O)N2CC(=O)N(CC(C)(C)C)CC(O)C2)cc1 (stereo not drawn)', 'cytotoxicity at 10 µM', 8.6),
  ('Cc1c(Cl)c(C(F)(F)F)nn1C(C)C(=O)NC1CCN(C)CC1 (stereo not drawn)', 'cytotoxicity at 10 µM', -3.13),
  ('COc1ccc(CNCC2(COc3cccnc3)C[C@@H](O)[C@@H](O)C2)cc1 (stereo partly drawn)', 'cytotoxicity at 10 µM', -57),
  ('CCS(=O)(=O)N1CCC(Nc2c(F)cc(C#N)cc2F)CC1', 'cytotoxicity at 10 µM', 8.13),
  ('O=C(CCN1CCc2cncnc2C1)N1CCc2sccc2C1', 'cytotoxicity at 10 µM', 2.37),
  ('Cc1occc1C(=O)N1Cc2nccn2CC(CN2CCCC2)C1 (stereo not drawn)', 'cytotoxicity at 10 µM', -105),
  ('OCC1CCCN1c1cc(NCc2cc3ccccc3o2)ncn1 (stereo not drawn)', 'cytotoxicity at 10 µM', 7.53),
  ('COc1cc2nc(C)n(CC(=O)O)c(=O)c2cc1OC', 'cytotoxicity at 10 µM', 5.68),
  ('CNS(=O)(=O)CC(=O)N(Cc1ccsc1)c1ccccc1', 'cytotoxicity at 10 µM', -2.4),
  ('COCCn1cc(NCc2c[nH]nc2-c2ccc(OC)cc2)cn1', 'cytotoxicity at 10 µM', 6.05),
  ('CN1CCCC2(CCN(C(=O)CCn3cncn3)C2)C1=O (stereo not drawn)', 'cytotoxicity at 10 µM', -11),
  ('Cc1noc(C)c1CN(C)C(=O)CCOc1ccc(Cl)cc1', 'cytotoxicity at 10 µM', -2.51),
  ('COc1ccc(CC(=O)Nc2cccnc2N2CCCC2)cc1OC', 'cytotoxicity at 10 µM', -22.6),
  ('CS(=O)(=O)N1CCCC12CCCN(S(=O)(=O)c1ccc(F)cc1)C2 (stereo not drawn)', 'cytotoxicity at 10 µM', 0.442),
  ('COc1cc2nc(C)n(CC(=O)NCCC(C)C)c(=O)c2cc1OC', 'cytotoxicity at 10 µM', -3.79),
  ('COCCN1CCO[C@@H]2CN(C(=O)Cc3ccc(F)cc3)CC[C@@H]2C1', 'cytotoxicity at 10 µM', 7.07),
  ('CCc1nc(NS(=O)(=O)c2cc(C)cc(F)c2)no1', 'cytotoxicity at 10 µM', 2.31),
  ('CCOC(=O)c1n[nH]cc1-c1cncn1CCCn1nc(C)cc1C', 'cytotoxicity at 10 µM', -2.73),
  ('CCCN1C[C@@H]2CC[C@H]1CN(C(=O)c1ccc(N(C)CCO)cc1)C2', 'cytotoxicity at 10 µM', -6.47),
  ('O=C(CN1CCN(CCO)CC1)NC(C1CC1)C1CC1', 'cytotoxicity at 10 µM', -6.56),
  ('CS(=O)(=O)N1CCCN(CCCSCc2ccccc2)CC1', 'cytotoxicity at 10 µM', -2.35),
  ('Cc1ccc(C(=O)N2CCOCC2)cc1NCc1ccsc1', 'cytotoxicity at 10 µM', -6.96),
  ('CCC(=O)NC(CC)c1ccccc1C (stereo not drawn)', 'cytotoxicity at 10 µM', 5.14);
